Numbers sourced from patent US20240368149A1.

assay: Rat PK: plasma xanomeline after subcutaneous (SC) dosing of xanomeline, prodrugs or pamoate salts at 5 mg/kg or 3.5 mg/kg (Example A-2); type: in vivo, male Sprague-Dawley (SD) rats; conditions: male, Sprague-Dawley, plasma, sc, parent xanomeline dosed SC, individual animals
Property Name: Cmax (ng/mL)
Give the value in ng/mL but do not write ng/mL after it.

Value of Cmax reported for the compound CCCCCCOc1nsnc1C1=CCCN(C)C1 is 54.6

###

experiment: Rat PK: plasma prodrug concentration after intramuscular (IM) dosing of xanomeline prodrugs at 5 mg/kg (Example A-4); assay type: in vivo, male Sprague-Dawley (SD) rats; conditions: male, Sprague-Dawley, im, 5 mg/kg, analyte prodrug, IM 5 mg/kg of xanomeline, individual animals, read-out: Prodrug AUClast
Property Name: AUC(0-t) (ng·h/mL)
Give the value in ng·h/mL but do not write ng·h/mL after it.

Value of AUC(0-t) reported for the compound CCCCCCOc1nsnc1C1=CCC[N+](C)(C(C)OC(=O)C(C)(C)C)C1 (stereo not shown) is 667

###

test: Rat PK: plasma prodrug concentration after intravenous (IV) dosing of xanomeline prodrugs at 1 mg/kg (Example A-6); type: in vivo, male Sprague-Dawley (SD) rats; conditions: male, Sprague-Dawley, iv, 1 mg/kg, analyte prodrug, IV 1 mg/kg of xanomeline, individual animals
Property Name: Cmax (ng/mL)
Give the value in ng/mL but do not write ng/mL after it.

Value of Cmax reported for the compound CCCCCCOc1nsnc1C1=CCC[N+](C)(C(C)OC(=O)C(C)(C)C)C1 (stereo not shown) is 35.4

###

test: Rat PK: plasma xanomeline after single subcutaneous (SC) dosing of xanomeline or xanomeline prodrugs at 1 mg/kg (Example A-1); assay type: in vivo, male Sprague-Dawley (SD) rats; details: male, Sprague-Dawley, plasma, sc, xanomeline analyte in plasma, individual animal (Table 3), read-out: Cmax
Property Name: Cmax

Value of Cmax reported for the molecule CCCCCCOc1nsnc1C1=CCCN(C)C1 is 15.9 ng/mL

###

experiment: Rat PK: plasma prodrug concentration after intravenous (IV) dosing of xanomeline prodrugs at 1 mg/kg (Example A-6); format: in vivo, male Sprague-Dawley (SD) rats; conditions: male, Sprague-Dawley, iv, 1 mg/kg, 0.500 h, IV 1 mg/kg of xanomeline, Mean, read-out: Prodrug Plasma Concentrations Following Intravenous Dosing
Provide the reported concentration at 0.5 h of each item.
Give the value in ng/mL but do not write ng/mL after it.

Value of concentration at 0.5 h reported for the compound CCCCCCOc1nsnc1C1=CCC[N+](C)(C(C)OC(=O)C(C)(C)C)C1 (centres unmarked) is 11.8

Value of concentration at 0.5 h reported for the compound CCCCCCOc1nsnc1C1=CCC[N+](C)(C(CC)OC(=O)C(C)(C)C)C1 (centres unmarked) is 12.9

###

experiment: Rat PK: plasma xanomeline after single subcutaneous (SC) dosing of xanomeline or xanomeline prodrugs at 1 mg/kg (Example A-1); format: in vivo, male Sprague-Dawley (SD) rats; conditions: male, Sprague-Dawley, in vivo, xanomeline analyte in plasma, individual animal (Table 3)
Property Name: Tmax (min)
Give the value in min but do not write min after it.

Value of Tmax reported for the molecule CCCCCCOc1nsnc1C1=CCCN(C)C1 is 15

###

assay: Rat PK: plasma prodrug concentration after intramuscular (IM) dosing of xanomeline prodrugs at 5 mg/kg (Example A-4); assay type: in vivo, male Sprague-Dawley (SD) rats; conditions: male, Sprague-Dawley, intramuscular, 5 mg/kg, 24.0 h, IM 5 mg/kg of xanomeline, Mean, read-out: Prodrug Plasma Concentrations Following Intramuscular Dosing
Property Name: concentration at 24 h (ng/mL)
Give the value in ng/mL but do not write ng/mL after it.

Value of concentration at 24 h reported for the molecule CCCCCCOc1nsnc1C1=CCC[N+](C)(C(C)OC(=O)C(C)(C)C)C1 (stereo not shown) is 1.59
